Target: human peripheral blood monocyte 20S β5i site, immunoproteasome (Homo sapiens, UniProt P20618+P28062)
Assay: Purified human 20S-PA28 peptidase assay, β5i site
parameter: pIC50
As a rule, pIC50 stands for the negative log10 of the concentration, concentration in M.

Recorded pIC50 (compound Cc1ccc(CNC(=O)[C@H](CCc2ccccc2)NC(=O)[C@H](CCc2ccccc2)NC(=O)[C@H](CCc2ccccc2)NC(=O)c2cnc(C)cn2)cc1 [Compound 1] ): 8.05

* * *

Target: human erythrocyte 20S β5 site (Homo sapiens, UniProt P20618+P28074)
Experiment: Kinetic analysis of purified 20S inhibition
parameter: pKi
As a rule, pKi stands for the negative log10 of the concentration, concentration in M.

Recorded pKi (compound Cc1ccc(CNC(=O)[C@H](CCc2ccccc2)NC(=O)[C@H](CCc2ccccc2)NC(=O)[C@H](CCc2ccccc2)NC(=O)c2cnc(C)cn2)cc1 ): 9.30
